Assay: photocatalytic hydrogen evolution rate (per 5 mg catalyst); higher = more photocatalytic H2 evolution; extreme values may be limits of the assay;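 also: aromatic molecules in triethylamine/methanol/water with Pt photoreduced in situ, irradiated 3 h under a 1 sun AM 1.5G solar simulator (350–1000 nm), H2 quantified by headspace gas chromatography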;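 also: listed molecule itself used as the photocatalyst at 5 mg per vial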
Conditions: catalyst mass (mg): 5; Pt cocatalyst (wt%): 3; sacrificial medium: triethylamine/methanol/water 1:1:1
assay_metric: photocatalytic hydrogen evolution rate (µmol/h)

Example results:
{"columns": ["smiles_entry", "value_unit", "number"],
 "data": [
  ["Brc1ccc(-c2cc(-c3ccc(Br)cc3)cc(-c3ccc(Br)cc3)c2)cc1", "µmol/h", 0],
  ["O=Cc1cccc(C=O)n1", "µmol/h", 0],
  ["O=C(O)c1cc(Br)ccc1Br", "µmol/h", 0],
  ["O=C(O)C1CCN(C(=O)c2ccccc2)CC1", "µmol/h", 0],
  ["Brc1ccc2c3ccc(Br)cc3n(-c3ccccc3)c2c1", "µmol/h", 0.0572]
]}

[A] Fc1cc(Br)c(Br)cc1F
[B] CC1(C)OB(c2cc(B3OC(C)(C)C(C)(C)O3)cc(B3OC(C)(C)C(C)(C)O3)c2)OC1(C)C
Request: Given the listed records, identify the one among A and B with higher photocatalytic hydrogen evolution rate. Pick one and reply with its label.
Response: B

[a] N#Cc1ccnc(Br)c1
[b] CCCCCCCCCCCCCCCCCCn1c(=O)c2ccc3sc4ccccc4c4ccc(c1=O)c2c34
Request: For a and b , which recorded photocatalytic hydrogen evolution rate is lower? Pick one and reply with its label.
Response: a

[1] C=Cc1ccc2c(=C(C#N)C#N)c3ccccc3c(=C(C#N)C#N)c2c1
[2] O=C(O)c1ccc(-c2cc(-c3ccc(C(=O)O)cc3)cc(-c3ccc(C(=O)O)cc3)c2)cc1
[3] N#Cc1cccc(-c2cccc(C=O)c2)c1
[4] OCc1ccc(-c2ccc(CO)cc2)cc1
Request: Order the entries by their reported photocatalytic hydrogen evolution rate, beginning at the minimum. Output the labels ranked as instructed.
Response: 1, 2, 4, 3
